Details: in methanol, 283.65 K
measured_endpoint: solubility (mole fraction)
Respond numerically, and do not add a unit to the figure.

Requested read-out: solubility (mole fraction). Entry: CC1(C)COP(=O)(C(Nc2ccccc2)c2ccccc2)OC1 (stereo unspecified)
0.002

###

Conditions: in 1,4-dioxane, 288.65 K
measured_endpoint: solubility (mole fraction)
Respond numerically, and do not add a unit to the figure.

Requested read-out: solubility (mole fraction). Entry: CC1(C)COP(=O)(C(Nc2ccccc2)c2ccccc2)OC1 (stereo unspecified)
0.00661

###

Conditions: in isopropanol, 312.55 K
measured_endpoint: solubility (mole fraction)
Respond numerically, and do not add a unit to the figure.

Requested read-out: solubility (mole fraction). Entry: CC1(C)COP(=O)(C(Nc2ccccc2)c2ccccc2)OC1 (stereo unspecified)
0.00203
